Attribution: patent US10851067B2

# target_system: Kv7.2/7.3 (Homo sapiens, UniProt O43525+O43526)
# assay_name: Kv7.2/7.3 Activation Assay, QPatch single concentration screen
# Assay type: cell-based
# Parameters: host or cells: HEK cells, tetracycline-inducible expression
# run_parameters: Kv7.2/Kv7.3 co-expressing HEK cells, compound concentration 3 μM, steady-state current at end of 2 s pulse to −30 mV
test_readout: Kv7.2/7.3 Activity: increase over baseline in current

Here's what some known entries look like.
Incoming: # query: Kv7.2/7.3 Activity: increase over baseline in current of entry CC(C)(C)CC(=O)Nc1nc2cc(F)c(C(C)(C)O)c(F)c2n1C1CCC1 [Example 362]
Outgoing: ++ (3-3.9 (++))

Incoming: Endpoint output: Kv7.2/7.3 Activity: increase over baseline in current of CC(C)(C)CC(=O)Nc1nc2c(F)cc(C#N)c(F)c2n1C(C)(C)C [Example 457] . Value?
Outgoing: ++ (3-3.9 (++))

Incoming: Give its Kv7.2/7.3 Activity: increase over baseline in current value. Item: CC(O)(CC(=O)Nc1nc2cc(F)cc(C#N)c2n1C1(C)CCC1)c1ccccc1 (single isomer, unassigned) [Example 465]
Outgoing: ++ (3-3.9 (++))

Incoming: Which value of Kv7.2/7.3 Activity: increase over baseline in current has been reported for CC(C)(CC(=O)Nc1nc2c(F)cc(C3(O)CCC3)cc2n1C1CCC1)C(F)(F)F [Example 352] in the records?
Outgoing: ++ (3-3.9 (++))

Incoming: Sample CC(O)(CC(=O)Nc1nc2ccc(OC(F)F)cc2n1C1(C)CCC1)c1ccccc1 (single isomer, unassigned) [Example 463] — what was its Kv7.2/7.3 Activity: increase over baseline in current?
Outgoing: + (1.2-2.9 (+))

Continuing:
Incoming: Value lookup for Kv7.2/7.3 Activity: increase over baseline in current; key = [2H]C([2H])([2H])C(CC(=O)Nc1nc2ccc(C(C)(C)O)cc2n1C1CCC1)(C([2H])([2H])[2H])C([2H])([2H])[2H] [Example 448]
Outgoing: ++ (3-3.9 (++))

Incoming: Give its Kv7.2/7.3 Activity: increase over baseline in current value. Item: C[C@H](C(=O)Nc1nc2ccc(C(C)(C)O)cc2n1C12CC(C1)C2)C(C)(C)C [Example 455]
Outgoing: ++ (3-3.9 (++))

Incoming: Which value of Kv7.2/7.3 Activity: increase over baseline in current has been reported for CC(C)(C)CC(=O)Nc1nc2c(F)cc(C#N)cc2n1C(C)(C)C [Example 420] in the records?
Outgoing: + (1.2-2.9 (+))
